- ASSAYED_TARGET: interaction between RamR and PramA (Salmonella typhimurium, UniProt Q8ZR43)
- Sequence (Q8ZR43 whole entry, the tested form may be a part): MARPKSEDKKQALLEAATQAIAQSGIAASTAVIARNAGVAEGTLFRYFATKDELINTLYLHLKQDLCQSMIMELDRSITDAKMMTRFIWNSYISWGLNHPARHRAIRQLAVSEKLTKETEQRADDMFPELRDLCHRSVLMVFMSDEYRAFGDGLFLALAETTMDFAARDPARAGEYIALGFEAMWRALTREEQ
- PROCEDURE_DETAILS: SPR inhibition of RamR binding to the 100-bp DNA fragment with the RamR-binding site
Recorded IC50 values for a group of compounds are listed next.
Output spec: scalar in µM, unitless text.

Some solved entries appear below for comparison.
| COMPOUND | ASSAYED_TARGET | UNITS | REPORTED_RESULT |
| --- | --- | --- | --- |
| C[C@H](CCC(=O)O)[C@H]1CC[C@H]2[C@@H]3[C@H](O)C[C@@H]4C[C@H](O)CC[C@]4(C)[C@H]3C[C@H](O)[C@]12C [cholic acid] | interaction between RamR and PramA (Salmonella typhimurium, UniProt Q8ZR43) | µM | 33 |
| C[C@H](CCC(=O)O)[C@H]1CC[C@H]2[C@@H]3[C@H](O)C[C@@H]4C[C@H](O)CC[C@]4(C)[C@H]3CC[C@]12C [chenodeoxycholic acid, 3α, 7α-dihydroxy-5β-cholan-24-oic acid] | interaction between RamR and PramA (Salmonella typhimurium, UniProt Q8ZR43) | µM | 19.2 |

Task: Given the entry C[C@H](CCC(=O)O)[C@H]1CC[C@H]2[C@@H]3CC[C@@H]4C[C@H](O)CC[C@]4(C)[C@H]3C[C@H](O)[C@]12C [deoxycholic acid, 3α, 12αdihydroxy-5β-cholan-24-oic acid] , report its measured IC50.
Result: 318
